- Test system: Plasmodium berghei
- PROCEDURE TEXT: Increase in mean survival time in Plasmodium berghei inoculated mice (Mus musculus) following 40 mg/kg administration
- Format: functional
Note to self: increase in mean survival time under 0.9 days means 1.0, ties and anything higher get 0.0.

>>> print(df.to_string())
                                   molecule              target  group
0    C/C(=N\N=C(/S)N1CCSCC1)c1cccc[n+]1[O-]  Plasmodium berghei    1.0
1  C/C(=N\N=C(/S)N1CCN(c2ccccn2)CC1)c1cccc[n+]1[O-]  Plasmodium berghei    1.0
2  CC(N/N=C(\S)N1CCCCCC1)c1cccc[n+]1[O-] (stereo unspecified)  Plasmodium berghei    1.0
3  C/C(=N\N=C(/S)N1CCCC(C)C1)c1cccc[n+]1[O-] (stereo unspecified)  Plasmodium berghei    0.0
4  C/C(=N\N=C(/S)N1CCCCC1C)c1cccc[n+]1[O-] (stereo unspecified)  Plasmodium berghei    0.0

====

- Test system: Mus musculus
- PROCEDURE TEXT: In vivo antimalarial activity against Plasmodium berghei in the mice (Mus musculus) at 640 mg/kg dosage
- Assay type: functional
Group membership follows increase in mean survival time per the scheme low bin (below 3 days), mid bin (3 days to below 7 days), high bin (7 days or more)

                                   compound     group
0  CC(N/N=C(\S)N1CCN(c2ccccn2)CC1)c1cccc[n+]1[O-] (stereo not given)   mid bin
1  CC(N/N=C(\S)N1CCCCC1)c1cccc[n+]1[O-] (stereo not given)   low bin
2  CC(N/N=C(\S)N1CCCCCC1)c1cccc[n+]1[O-] (stereo not given)   mid bin
3     C/C(=N\N=C(/S)N1CCCC1)c1cccc[n+]1[O-]   mid bin
4    C/C(=N\N=C(/S)N1CCSCC1)c1cccc[n+]1[O-]   low bin
5  CC(N/N=C(\S)N1CCCC1)c1cccc[n+]1[O-] (stereo not given)   low bin
6  CCOC(=O)N1CCN(/C(S)=N/NC(C)c2cccc[n+]2[O-])CC1 (stereo not given)  high bin
7  C/C(=N\N=C(/S)N1CCN(c2ccccc2)CC1)c1cccc[n+]1[O-]  high bin
